Recorded measurements of pKi, one per entry
Molecular target: T1, Human MMP-9 catalytic domain (BIOMOL, SE-244) (human, UniProt P14780 107-457, limits assumed)
T1 construct: domain: catalytic domain; also called Cat-huMMP-9; cat-huMMP-9
T1 sequence (P14780 107-457 limits assumed): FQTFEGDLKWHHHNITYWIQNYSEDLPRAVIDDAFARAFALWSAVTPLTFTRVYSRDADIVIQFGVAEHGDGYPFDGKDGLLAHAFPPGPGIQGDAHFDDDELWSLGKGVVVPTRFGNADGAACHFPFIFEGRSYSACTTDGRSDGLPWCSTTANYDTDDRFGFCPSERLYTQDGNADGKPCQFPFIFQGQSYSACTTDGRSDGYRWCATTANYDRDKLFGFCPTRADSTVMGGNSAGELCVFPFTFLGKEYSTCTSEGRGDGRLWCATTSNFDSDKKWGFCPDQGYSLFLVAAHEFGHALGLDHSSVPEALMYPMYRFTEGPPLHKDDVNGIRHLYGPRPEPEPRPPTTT
Assay: Ki,app, enzyme inhibition assay (fluorogenic peptide substrate), small-scale sFab
Experimental: Target enzymes were incubated with inhibitor for two hours at 30° C. in reaction buffer (50 mM Tris-HCl pH 7.5, 150 mM NaCl, 5 mM CaCl₂, 0.05% Brij-35) in a total volume of 90 μL using a white 96 well plate (Costar). […] Reactions were initiated by the addition of 10 μL of a 10× concentrated stock of substrate, Mca-Lys-Pro-Leu-Gly-Leu-Dap(Dnp)-Ala-Arg-NH2, (Bachem M-2350), at final concentration of 10 μM and monitored at 30° C. in a Molecular Devices' Gemini fluorescence plate reader. […]
# log scale: pKi equals minus log10 of the concentration in mol/L

As a guide, the following entries are already answered.
{"columns": ["binder", "reported metric", "recorded result"],
 "data": [
  ["M0275-E12 (Fab, V domains shown, sFab; variable domains only; also called M275-E12) VH: EVQLLESGGGLVQPGGSLRLSCAASGFTFSHYDMWWVRQAPGKGLEWVSVIYSSGGFTGYADSVKGRFTISRDNSKNTLYLQMNSLRAEDTAVYYCAKDRAYGDYVGWNGFDYWGQGTLVTVSS VL: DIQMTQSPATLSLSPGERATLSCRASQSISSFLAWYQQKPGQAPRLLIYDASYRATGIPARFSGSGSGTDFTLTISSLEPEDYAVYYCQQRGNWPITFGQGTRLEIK", "pKi", 9.52],
  ["M0301-D12 (Fab, V domains shown, sFab; variable domains only; also called M301-D12) VH: EVQLLESGGGLVQPGGSLRLSCAASGFTFSMYDMWWVRQAPGKGLEWVSVIYSSGGYTSYADSVKGRFTISRDNSKNTLYLQMNSLRAEDTAVYYCAKDRAYGDYVGWNGFDYWGQGTLVTVSS VL: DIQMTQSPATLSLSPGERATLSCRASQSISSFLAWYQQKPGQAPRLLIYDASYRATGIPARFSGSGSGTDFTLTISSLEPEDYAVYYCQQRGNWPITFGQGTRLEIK", "pKi", 9.00]
]}

Read the next record carefully.
For this binder ( M0299-C09 (Fab, V domains shown, sFab; variable domains only; also called M299-C09) VH: EVQLLESGGGLVQPGGSLRLSCAASGFTFSNYPMWWVRQAPGKGLEWVSYIVPSGGATFYADSVKGRFTISRDNSKNTLYLQMNSLRAEDTAVYYCAKDRAYGDYVGWNGFDYWGQGTLVTVSS VL: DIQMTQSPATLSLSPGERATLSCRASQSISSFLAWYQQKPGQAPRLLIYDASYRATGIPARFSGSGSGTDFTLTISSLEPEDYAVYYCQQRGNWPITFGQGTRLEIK ), measured pKi is 9.15
